- Target desc: RSV prefusion F (preF), DS-Cav1 (Respiratory syncytial virus, UniProt P03420 26-513)
- Protocol text: BLI, IgG on anti-human IgG sensor, 100 nM antigen

[
  {
    "Binder": "ADI-41778 (antibody, V domains shown) VH: QVQLVESGGGQGQPGRSLRLSCAASGFTFDDYAMHWVRQVPGKGLEWVSGINWNSGYIGYADSVKGRFTISRDNAKNSLYLQMNSLRAEDTALYYCAKANNPIDSSGYNRGFDTWGQGTLVTVSS VL: QSALTQPRSVSGSPGQSVTISCTGTSSDVGGYNYVSWYQQHPGKAPKLMIYDVNKRPSGVPDRFSGSKSDNTASLTISGLQAEDESDYFCCSYAGTYTWVFGGGTKVTVL",
    "Output unit": "nM",
    "Kd": 2.75
  },
  {
    "Binder": "ADI-41799 (antibody, V domains shown, also called Ab 910; Antibody Number 910) VH: QVQLVQSGAEVKKPGSSVKVSCQASGGTFSTHALSWVRQTPGHGLEWVGGVLPVFGATKYPRKFQGRVTITADKSTNTAYMELSSLRSDDTAVYYCARVVVHSTITTAKDFFSGVHDIWGQGTMVTVSS VL: DIRMTQSPSTLSASVGDRVTITCRASQTVSSWLAWYQQKPGKAPKLLIYQASSLESGVPSRFSGSGSGTEFTLTISGLQPDDFATYFCQHYNSYSPVTFGGGTKVEIK",
    "Output unit": "nM",
    "Kd": 3.28
  },
  {
    "Binder": "ADI-41604 (antibody, V domains shown) VH: QVTLKESGAEVKKPGASVKVSCKASGYTFTGYYMHWVRQAPGQGLEWMGRINPNSGGTNYAQKFQGRVTMTRDTSISTAYMELSRLRSDDTAVYYCAREASRFGGFDYWGQGTLVTVSS VL: DIVLTQSPSSLSASVGDRVTITCQASQDISNYLNWYQQKPGKAPKLLIYDASNLETGVPSRFSGSGSGTDFTFTISSLQPEDIATYYCQQYDNLLGYTFGQGTKVEIK",
    "Output unit": "nM",
    "Kd": 17.8
  }
]
